Hi there, I'd appreciate the recorded Ki for every entry that follows.
# Measured Target: UniProt:P06401
# Sequence (P06401 whole entry): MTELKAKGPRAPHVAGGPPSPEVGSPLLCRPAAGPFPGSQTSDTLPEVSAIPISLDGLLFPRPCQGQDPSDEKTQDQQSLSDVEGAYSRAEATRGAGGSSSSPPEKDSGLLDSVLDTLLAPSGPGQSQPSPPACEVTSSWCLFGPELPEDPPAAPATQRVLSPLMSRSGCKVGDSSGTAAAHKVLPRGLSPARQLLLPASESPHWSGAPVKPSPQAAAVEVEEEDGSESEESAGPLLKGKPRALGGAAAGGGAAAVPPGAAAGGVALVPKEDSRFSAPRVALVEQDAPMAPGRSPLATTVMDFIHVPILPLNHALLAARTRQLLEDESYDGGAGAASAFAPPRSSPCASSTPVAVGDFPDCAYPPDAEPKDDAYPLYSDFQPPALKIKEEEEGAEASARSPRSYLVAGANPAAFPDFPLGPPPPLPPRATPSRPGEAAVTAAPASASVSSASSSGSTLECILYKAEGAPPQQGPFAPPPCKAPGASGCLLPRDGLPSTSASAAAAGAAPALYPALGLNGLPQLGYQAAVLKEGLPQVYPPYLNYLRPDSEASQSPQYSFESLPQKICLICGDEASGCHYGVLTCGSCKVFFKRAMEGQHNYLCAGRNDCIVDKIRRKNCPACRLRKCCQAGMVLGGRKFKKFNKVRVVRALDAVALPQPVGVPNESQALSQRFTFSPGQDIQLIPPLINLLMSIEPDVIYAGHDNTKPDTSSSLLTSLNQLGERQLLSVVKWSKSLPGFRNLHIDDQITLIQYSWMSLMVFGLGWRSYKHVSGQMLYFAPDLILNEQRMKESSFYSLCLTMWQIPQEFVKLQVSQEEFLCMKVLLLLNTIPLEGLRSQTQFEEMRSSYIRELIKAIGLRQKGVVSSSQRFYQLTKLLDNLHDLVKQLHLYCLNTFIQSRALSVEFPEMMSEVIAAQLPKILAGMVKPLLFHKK

Which Ki reading was recorded for the molecule COc1cccc2c1-c1ccc3c(c1C(c1ccccc1)O2)C(C)=CC(C)(C)N3 (single isomer, unassigned; (-)) ?
> 5 µM

So what does the record say about Ki for COc1cccc2c1-c1ccc3c(c1C(c1cccc(OC(=O)N(C)C)c1)O2)C(C)=CC(C)(C)N3 (configuration not stated) ?
> 5 µM
